Assay: Plasma clearance in rhesus monkey at 0.5 mg/kg, iv
Type: ADME, organism-based, Macaca mulatta
Design: dose 0.5 mg/kg, route intravenous
measuredParameter: clearance (mL/min/kg)

>>> print(df.to_string())
                               linenotation  observed
0  Nc1ccc(-c2cccs2)cc1NC(=O)c1ccc(N2CCC3(CC2)CNC(=O)O3)nc1        27

###

Experiment: Plasma protein binding in Sprague-Dawley rat at 2 uM
Type: ADME, cell-free
Details: read-out: PPB (converted)
measuredParameter: fraction unbound at 2 µM

>>> df
                               linenotation         measuredparameter  observed
0  Nc1ccc(-c2cccs2)cc1NC(=O)c1ccc(N2CCC3(CC2)CNC(=O)O3)nc1  fraction unbound at 2 µM     0.002
